test system: ATP; experiment: switch fluorescence ratio, 500 uM ATP over buffer (Cy3 cluster intensity, sum of 5 cycles each) (fold (ratio)); higher = stronger signal-on switching upon ATP binding; sequences stand for … in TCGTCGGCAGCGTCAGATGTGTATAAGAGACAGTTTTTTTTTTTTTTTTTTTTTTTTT…TC; details: aptamer strand: ATP DNA aptamer (quencher-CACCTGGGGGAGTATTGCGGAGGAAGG + anchor), 100 nM annealed; ATP concentration: 500 uM;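 further: ATP exposure 15 min at 22 °C before imaging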
Exercise: state measured switch fluorescence ratio for each of the sequences provided.
Hey, just send me the number, nothing else.

# input Recorded switch fluorescence ratio of `GTTTGTCAGC` , please.
# output 1.01

# input Recorded switch fluorescence ratio of `GGGGGTGCTG` , please.
# output 0.993

# input Recorded switch fluorescence ratio of `TTCTTGTTTT` , please.
# output 1.01

# input Recorded switch fluorescence ratio of `TAGTTTGTTA` , please.
# output 0.987

# input Recorded switch fluorescence ratio of `GCGTGACGTA` , please.
# output 1

# input Recorded switch fluorescence ratio of `ACAGTAACTT` , please.
# output 1.09

# input Recorded switch fluorescence ratio of `TAAAATTGAA` , please.
# output 0.991

# input Recorded switch fluorescence ratio of `TTTTAACTTT` , please.
# output 1.03

# input Recorded switch fluorescence ratio of `ACTGTTTTTT` , please.
# output 1.02

# input Recorded switch fluorescence ratio of `TCTGGTGTTT` , please.
# output 0.986

# input Recorded switch fluorescence ratio of `CATTTTTGAT` , please.
# output 1.01

# input Recorded switch fluorescence ratio of `GAAAGCGGTG` , please.
# output 1.01

# input Recorded switch fluorescence ratio of `ATCAGTGTGG` , please.
# output 0.967

# input Recorded switch fluorescence ratio of `TTTACAGGTA` , please.
# output 0.981

# input Recorded switch fluorescence ratio of `CGTATTTGGA` , please.
# output 0.985

# input Recorded switch fluorescence ratio of `TAGATGCATG` , please.
# output 1

# input Recorded switch fluorescence ratio of `TGGGACTCGA` , please.
# output 0.991

# input Recorded switch fluorescence ratio of `ACGGCGAGAG` , please.
# output 1.06

# input Recorded switch fluorescence ratio of `GGATTATGAA` , please.
# output 0.994

# input Recorded switch fluorescence ratio of `GGGCATATTC` , please.
# output 1.16

# input Recorded switch fluorescence ratio of `CTGGTCCAGG` , please.
# output 1.12

# input Recorded switch fluorescence ratio of `CAGGGATTGA` , please.
# output 0.998

# input Recorded switch fluorescence ratio of `CATTTATTTG` , please.
# output 1.01

# input Recorded switch fluorescence ratio of `GTAAATAGCT` , please.
# output 1.02

# input Recorded switch fluorescence ratio of `CCTGGGGCTG` , please.
# output 1.12

# input Recorded switch fluorescence ratio of `TTGGGTGAAC` , please.
# output 1

# input Recorded switch fluorescence ratio of `ATGAAAATTA` , please.
# output 0.975

# input Recorded switch fluorescence ratio of `TGTGGGATTG` , please.
# output 0.993

# input Recorded switch fluorescence ratio of `ACCTTTTTCG` , please.
# output 1.07

# input Recorded switch fluorescence ratio of `GACAGAAGGC` , please.
# output 1

# input Recorded switch fluorescence ratio of `TGAACGGCTT` , please.
# output 1.04

# input Recorded switch fluorescence ratio of `TTAAAACGAA` , please.
# output 1.01

# input Recorded switch fluorescence ratio of `GGCGCAACAG` , please.
# output 1.44

# input Recorded switch fluorescence ratio of `GGGGGAGGAG` , please.
# output 0.996

# input Recorded switch fluorescence ratio of `TTTTCATCAT` , please.
# output 1.01

# input Recorded switch fluorescence ratio of `GGCTGAGGCG` , please.
# output 0.965

# input Recorded switch fluorescence ratio of `GTGGGTTGGA` , please.
# output 0.993

###

Exercise: state measured switch fluorescence ratio for each of the sequences provided.
system: ATP; assay: switch fluorescence ratio, 500 uM ATP over buffer (Cy3 cluster intensity, sum of 5 cycles each) (fold (ratio)); higher = stronger signal-on switching upon ATP binding; sequences stand for … in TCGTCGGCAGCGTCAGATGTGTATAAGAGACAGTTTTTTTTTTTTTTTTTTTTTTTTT…TC; details: aptamer strand: ATP DNA aptamer (quencher-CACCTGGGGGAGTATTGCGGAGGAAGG + anchor), 100 nM annealed; ATP concentration: 500 uM;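 further: ATP exposure 15 min at 22 °C before imaging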
Hey, just send me the number, nothing else.

# input Recorded switch fluorescence ratio of `CAGAATGTTA` , please.
# output 1

# input Recorded switch fluorescence ratio of `CCTCGGCGGT` , please.
# output 2.47

# input Recorded switch fluorescence ratio of `TGTTATACAT` , please.
# output 1.01

# input Recorded switch fluorescence ratio of `TTCCGGGTGT` , please.
# output 1.66

# input Recorded switch fluorescence ratio of `GTGGGAACAG` , please.
# output 0.979

# input Recorded switch fluorescence ratio of `TTAAAAAGG` , please.
# output 1.02

# input Recorded switch fluorescence ratio of `ACTTGTAAAC` , please.
# output 1.01

# input Recorded switch fluorescence ratio of `CGGGAAGTTC` , please.
# output 1.03

###

test system: ATP; test: switch fluorescence ratio, 500 uM ATP over buffer (Cy3 cluster intensity, sum of 5 cycles each) (fold (ratio)); higher = stronger signal-on switching upon ATP binding; sequences stand for … in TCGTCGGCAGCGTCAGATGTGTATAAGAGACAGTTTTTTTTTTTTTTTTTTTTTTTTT…TC; conditions: aptamer strand: ATP DNA aptamer (quencher-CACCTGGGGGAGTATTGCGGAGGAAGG + anchor), 100 nM annealed; ATP concentration: 500 uM;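 further: ATP exposure 15 min at 22 °C before imaging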
Exercise: state measured switch fluorescence ratio for each of the sequences provided.
Hey, just send me the number, nothing else.

# input Recorded switch fluorescence ratio of `TTTTTTGTTA` , please.
# output 1

# input Recorded switch fluorescence ratio of `ATGGTCGAGC` , please.
# output 0.982

# input Recorded switch fluorescence ratio of `CGGCGGCACC` , please.
# output 1.09

# input Recorded switch fluorescence ratio of `CCTCACAGTT` , please.
# output 1.24

# input Recorded switch fluorescence ratio of `CGAGGCAAGT` , please.
# output 5.07

# input Recorded switch fluorescence ratio of `AGACTCTTGA` , please.
# output 1

# input Recorded switch fluorescence ratio of `AGGGGGGGC` , please.
# output 0.991

###

system: ATP; assay: switch fluorescence ratio, 500 uM ATP over buffer (Cy3 cluster intensity, sum of 5 cycles each) (fold (ratio)); higher = stronger signal-on switching upon ATP binding; sequences stand for … in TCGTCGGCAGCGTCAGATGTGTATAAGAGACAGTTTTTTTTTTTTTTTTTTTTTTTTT…TC; details: aptamer strand: ATP DNA aptamer (quencher-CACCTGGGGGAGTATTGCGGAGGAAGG + anchor), 100 nM annealed; ATP concentration: 500 uM;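 further: ATP exposure 15 min at 22 °C before imaging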
PROPERTY: switch fluorescence ratio

# input Request - read-out switch fluorescence ratio | tested on ATP | sequence `TTAGTGGGGT`;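 further: ATP exposure 15 min at 22 °C before imaging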
# output 1.01

# input Request - read-out switch fluorescence ratio | tested on ATP | sequence `ATTGTGTGGT`;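 further: ATP exposure 15 min at 22 °C before imaging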
# output 1.01

# input Request - read-out switch fluorescence ratio | tested on ATP | sequence `TGGACCTGAA`;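 further: ATP exposure 15 min at 22 °C before imaging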
# output 1.1

# input Request - read-out switch fluorescence ratio | tested on ATP | sequence `TTGCACGGGC`;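 further: ATP exposure 15 min at 22 °C before imaging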
# output 1.01

# input Request - read-out switch fluorescence ratio | tested on ATP | sequence `CCTCTATGAT`;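 further: ATP exposure 15 min at 22 °C before imaging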
# output 1.42

# input Request - read-out switch fluorescence ratio | tested on ATP | sequence `AGTTAACAGC`;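 further: ATP exposure 15 min at 22 °C before imaging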
# output 0.959

# input Request - read-out switch fluorescence ratio | tested on ATP | sequence `TAAAATGCCG`;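 further: ATP exposure 15 min at 22 °C before imaging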
# output 1.01

# input Request - read-out switch fluorescence ratio | tested on ATP | sequence `TTACATTGAG`;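 further: ATP exposure 15 min at 22 °C before imaging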
# output 0.976

# input Request - read-out switch fluorescence ratio | tested on ATP | sequence `ACATTATGGA`;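 further: ATP exposure 15 min at 22 °C before imaging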
# output 1.04

# input Request - read-out switch fluorescence ratio | tested on ATP | sequence `GGTCCGGCAC`;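 further: ATP exposure 15 min at 22 °C before imaging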
# output 1.08

# input Request - read-out switch fluorescence ratio | tested on ATP | sequence `AGTGGAACTT`;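 further: ATP exposure 15 min at 22 °C before imaging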
# output 0.976

# input Request - read-out switch fluorescence ratio | tested on ATP | sequence `GCCGGCACTG`;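 further: ATP exposure 15 min at 22 °C before imaging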
# output 1

# input Request - read-out switch fluorescence ratio | tested on ATP | sequence `TCCGGGGTGG`;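 further: ATP exposure 15 min at 22 °C before imaging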
# output 1.02

# input Request - read-out switch fluorescence ratio | tested on ATP | sequence `TCTGAGTGCG`;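 further: ATP exposure 15 min at 22 °C before imaging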
# output 1.02

# input Request - read-out switch fluorescence ratio | tested on ATP | sequence `GGCGTTTTCG`;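 further: ATP exposure 15 min at 22 °C before imaging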
# output 0.997

# input Request - read-out switch fluorescence ratio | tested on ATP | sequence `AGTTGTGAGG`;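 further: ATP exposure 15 min at 22 °C before imaging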
# output 1.01
